Quick reference for pKd among some binders
- TESTED_ON: T1, rhesus monkey ERBB3 His tag, monomeric (rhesus monkey (Macaca mulatta), UniProt P21860 20-643 (human entry), limits assumed)
- T1 chain: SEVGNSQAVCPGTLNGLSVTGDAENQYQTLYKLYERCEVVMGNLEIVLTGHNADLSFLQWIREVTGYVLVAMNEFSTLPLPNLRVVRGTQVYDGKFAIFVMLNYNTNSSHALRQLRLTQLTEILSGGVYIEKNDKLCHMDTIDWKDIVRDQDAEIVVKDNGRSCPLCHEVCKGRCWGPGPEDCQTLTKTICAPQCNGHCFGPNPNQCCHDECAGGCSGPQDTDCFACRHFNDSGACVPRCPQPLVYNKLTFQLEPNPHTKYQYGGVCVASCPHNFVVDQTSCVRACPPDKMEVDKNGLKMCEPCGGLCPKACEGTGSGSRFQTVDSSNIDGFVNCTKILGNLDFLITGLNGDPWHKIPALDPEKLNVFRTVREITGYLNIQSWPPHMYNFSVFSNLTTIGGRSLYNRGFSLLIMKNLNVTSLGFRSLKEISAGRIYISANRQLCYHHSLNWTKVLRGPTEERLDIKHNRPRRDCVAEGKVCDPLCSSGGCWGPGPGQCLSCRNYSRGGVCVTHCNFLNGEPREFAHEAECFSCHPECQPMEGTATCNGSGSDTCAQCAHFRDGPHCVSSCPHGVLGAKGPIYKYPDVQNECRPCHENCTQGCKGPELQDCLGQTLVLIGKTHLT
- ASSAY_PROCEDURE: SPR (Biacore), captured IgG, monomeric ERBB3-His analyte
On this scale, pKd is minus log10 of a concentration expressed in M (mol/L).

Observe how each entry below is paired with its result.
16B09 IgG1null (antibody, V domains shown, Human IgG1null (L234A, L235A, G237A) and human Ckappa) VH: QVQLVESGGGLVKPGGSLRLSCAASGFTFSDYSMSWIRQAPGKGLEWVSTISDSGTYTYYPDSVKGRFTISRDNAKNSLYLQMNSLRAEDTAVYYCAREWGDYDGFDFWGQGTLVTVSS VL: DIQMTQSPSSLSASVGDRVTITCRASQEISSYLSWYQQKPGKAPKLLIYAASTLQSGVPSRFSGSGSGTDFTLTISSLQPEDFATYYCLQYDSTPLTFGGGTKVEIK: 9.68
09D12 IgG1null (antibody, V domains shown, Human IgG1null and human Ckappa) VH: QVQLVESGGGLVKPGGSLRLSCAASGFTFSDYGMSWIRQAPGKGLEWVSTISDGGSYTYYADSVKGRFTISRDNAKNSLYLQMNSLRAEDTAVYYCAREYGDYDGFDYWGQGTLVTVSS VL: DIQMTQSPSSLSASVGDRVTITCRASQSISSYLNWYQQKPGKAPKLLIYAASSLDSGVPSRFSGSGSGTDFTLTISSLQPEDFATYYCLQYDSTPLTFGGGTKVEIK: 9.16

Now take the following binder into account.
The binder listed as MH3 IgG1null (antibody, V domains shown, Designer (Maximally Humanized) clone; Human IgG1null and human Ckappa) VH: QVQLVESGGGLVKPGGSLRLSCAASGFTFSDYSMSWIRQAPGKGLEWVSTISDSGSTIYYADSVKGRFTISRDNAKNSLYLQMNSLRAEDTAVYYCAREWGDYDGFDFWGQGTLVTVSS VL: DIQMTQSPSSLSASVGDRVTITCRASQSISSYLSWYQQKPGKAPKLLIYAASSLQSGVPSRFSGSGSGTDFTLTISSLQPEDFATYYCLQYDSTPLTFGGGTKVEIK shows pKd equal to 9.20
